Data provenance: patent US20260216219A1

test system: MIAPaCa/FG2 cells; experiment: EC50 assay of small molecule activated γδ T cells to kill tumor cells (10-fold dilution, 10^-12-10^-5 M); type: cell-based; details: Homo sapiens, MIA PaCa-2, 20 h, read-out: MIApaca killing (nM)
Quantity Name: EC50
Your answer should be a number followed by the unit of measure.

Provide EC50 value for the following molecule: C/C(=C\CCP(=O)(N[C@@H](C)C(=O)OC(C)C)Oc1ccccc1)CO (stereo partly shown) [Control compound 1, reference compound]
0.57 nM
